Reference for the values: the supplement of paper PMC5908809

# System: normal primary NK cells, pool 1 (3 donors) (IL-2 2.5 ng/mL)
# procedure-details: percent inhibition of viability; higher = more inhibition
# applied-conditions: 72 h; 1000 nM
endpoint-label: percent inhibition of viability
Give your result as the value with the unit written after it.

Example compounds with recorded percent inhibition of viability:
INSERT INTO measurements (compound, tested_target, recorded_measurement) VALUES
  ('O=C(Nc1ccc(-c2ccnc(Nc3ccc(N4CCOCC4)cc3)n2)cc1)C1CCCN1 (stereo not drawn) [XL019] (max concentration tested 10000 nM)', 'normal primary NK cells, pool 1 (3 donors) (IL-2 2.5 ng/mL)', '9.22%'),
  ('CCc1cncnc1N1CCN(Cc2nc3ccc(C(F)(F)F)cc3[nH]2)CC1 (max concentration tested 10000 nM)', 'normal primary NK cells, pool 1 (3 donors) (IL-2 2.5 ng/mL)', '11.8%');

Data request: Which percent inhibition of viability reading was recorded for the compound O=C(c1ccc(OCCN2CCCCC2)cc1)c1c(-c2ccc(O)cc2)sc2cc(O)ccc12 [Raloxifene] (max concentration tested 10000 nM) ?
Data returned: -7.43%

###

So I've got a bunch of molecules here, and I need their drug sensitivity score values.
# System: normal primary NK cells, pool 1 (3 donors) (IL-2 2.5 ng/mL)
# procedure-details: drug sensitivity score (DSS) (DSS units); higher = more sensitive; extreme values may be limits of the assay
# applied-conditions: 72 h
Answers are plain numbers.

Example molecules with recorded drug sensitivity score:
INSERT INTO measurements (molecule, recorded_measurement) VALUES
  ('Nc1nc(Cl)nc2c1ncn2[C@H]1C[C@H](O)[C@@H](CO)O1 [Cladribine] (max concentration tested 1000 nM)', 20.3),
  ('COc1ccc(CCc2nc3cc(-c4c(C)noc4C)ccc3n2C[C@H](C)N2CCOCC2)cc1Cl [SGC-CBP30] (max concentration tested 25000 nM)', 9.22);

Shift focus to the following entry.
Data request: Requested read-out drug sensitivity score, target or system normal primary NK cells, pool 1 (3 donors) (IL-2 2.5 ng/mL), entry CN(C)CCOc1ccc(/C(=C(/CCCl)c2ccccc2)c2ccccc2)cc1 [Toremifene] (max concentration tested 10000 nM)
Data returned: 2.96

###

# System: NKL (IL-2 2.5 ng/mL)
# procedure-details: percent inhibition of viability; higher = more inhibition
# applied-conditions: 72 h; 1000 nM
So I've got a bunch of compounds here, and I need their percent inhibition of viability values.
Numbers only, in %.

INSERT INTO assay_data (compound, tested_target, unit, recorded_measurement) VALUES
  ('CNC(=O)CN1CCC(Oc2cc3c(Nc4cccc(Cl)c4F)ncnc3cc2OC)CC1 [Sapitinib] (max concentration tested 1000 nM)', 'NKL (IL-2 2.5 ng/mL)', '%', 5.26),
  ('CN1CCC(CNc2ccc3ncc(-c4cccc(OC(F)(F)F)c4)n3n2)CC1 [SGI-1776] (max concentration tested 10000 nM)', 'NKL (IL-2 2.5 ng/mL)', '%', 18.8);

Data request: Which percent inhibition of viability reading was recorded for the compound C[C@@H](Nc1cc(F)cc(F)c1)c1cc(C(=O)N(C)C)cc2c(=O)cc(N3CCOCC3)oc12 [AZD-8186] (max concentration tested 1000 nM) ?
Data returned: -6.27

###

# Tested on: normal NK cells expanded with K562-aAPC
# procedure-details: percent inhibition of viability; higher = more inhibition
# applied-conditions: 72 h; IL-2 2.5 ng/mL; 1000 nM
endpoint-label: percent inhibition of viability (%)
Answers are plain numbers, in %.

Example compounds with recorded percent inhibition of viability:
INSERT INTO assay_data (compound, unit, recorded_measurement) VALUES
  ('CC(=O)O[C@@]12CO[C@@H]1C[C@H](O)[C@@]1(C)C(=O)[C@H](O)C3=C(C)[C@@H](OC(=O)[C@H](O)[C@@H](NC(=O)OC(C)(C)C)c4ccccc4)C[C@@](O)([C@@H](OC(=O)c4ccccc4)[C@H]21)C3(C)C [Docetaxel] (max concentration tested 1000 nM)', '%', 60.9),
  ('COc1c(C)cnc(Cn2cnc3c(Cl)nc(N)nc32)c1C [BIIB021] (max concentration tested 10000 nM)', '%', 98.6),
  ('Nc1nc2[nH]cc(CCc3ccc(C(=O)N[C@@H](CCC(=O)O)C(=O)O)cc3)c2c(=O)[nH]1 [Pemetrexed] (max concentration tested 10000 nM)', '%', 32.5),
  ('C[C@@H](Oc1cc(-n2cnc3ccc(CN4CCN(C)CC4)cc32)sc1C(N)=O)c1ccccc1C(F)(F)F (max concentration tested 10000 nM)', '%', 59.8);

Would you mind giving percent inhibition of viability for every compound in the list below?
1. COC1=CC(c2cc3ccccc3[nH]2)=N/C1=C\c1[nH]c(C)cc1C [Obatoclax] (max concentration tested 10000 nM)
2. COc1cc(OC2CCN(C)CC2)ccc1Nc1ncc2c(n1)n(C1CCCC1)c(=O)n2C [AZ 3146] (max concentration tested 10000 nM)
3. Nc1nc(Cl)nc2c1ncn2[C@H]1C[C@H](O)[C@@H](CO)O1 [Cladribine] (max concentration tested 1000 nM)
4. CC(C)(C)c1cc(NC(=O)Nc2ccc(-c3cn4c(n3)sc3cc(OCCN5CCOCC5)ccc34)cc2)no1 [Quizartinib] (max concentration tested 1000 nM)
5. Nc1ccn([C@@H]2O[C@H](CO)[C@@H](O)[C@@H]2O)c(=O)n1 [Cytarabine] (max concentration tested 10000 nM)
6. CCc1cc2c(cc1N1CCC(N3CCOCC3)CC1)C(C)(C)c1[nH]c3cc(C#N)ccc3c1C2=O [Alectinib] (max concentration tested 1000 nM)

Data returned:
[6.46, 4.68, 100, 12, 84.4, 4.52]

Would you mind giving percent inhibition of viability for every compound in the list below?
1. Cc1ccccc1C(C(=O)NC1CCCCC1)N(C(=O)Cn1ccnc1C)c1cccc(F)c1 (stereo not drawn) [AGI-5198] (max concentration tested 10000 nM)
2. Nc1cc(C(F)(F)F)c(-c2cc(N3CCOCC3)nc(N3CCOCC3)n2)cn1 [Buparlisib] (max concentration tested 10000 nM)
3. COc1ccc(C2=N[C@@H](c3ccc(Cl)cc3)[C@@H](c3ccc(Cl)cc3)N2C(=O)N2CCNC(=O)C2)c(OC(C)C)c1 [Nutlin-3] (max concentration tested 10000 nM)
4. CCCS(=O)(=O)Nc1ccc(F)c(C(=O)c2c[nH]c3ncc(-c4ccc(Cl)cc4)cc23)c1F [Vemurafenib] (max concentration tested 10000 nM)
5. COCC(=O)NC/C=C/c1ccc2ncnc(Nc3ccc(Oc4ccc(C)nc4)c(C)c3)c2c1 (max concentration tested 10000 nM)
6. N#CC[C@H](C1CCCC1)n1cc(-c2ncnc3[nH]ccc23)cn1 [Ruxolitinib] (max concentration tested 10000 nM)

Data returned:
1.75
25.6
19.4
-4.54
-3.66
97.8
